Form field: Ratio Ki (one value per entry).
experiment: Selectivity index, ratio of Ki for displacement of [3H]CGP12177 from human beta2 adrenoceptor expressed in CHO cell membranes to Ki for displacement of [3H]CGP12177 from mouse beta1 adrenoceptor expressed in HEK293T cell membranes
Answer with the value's number alone.

Sample records with Ratio Ki:
COCCc1ccc(OC[C@@H](O)CNCCc2ccc(OCCCSSCCN)c(OC)c2)cc1 ... 0.91
COc1cc(CCNC[C@H](O)COc2ccc(-c3nc(C(F)(F)F)cn3C)cc2)ccc1OCCSSCCN ... 15
Cn1cc(C(F)(F)F)nc1-c1ccc(OC[C@@H](O)CNCCOc2ccc(OCCCSSCCN)c(C(N)=O)c2)cc1 ... 20
COCCc1ccc(OC[C@H](O)CNCCc2ccc(OCCCSSCCN)c(OC)c2)cc1 ... 1.5
COc1cc(CCNC[C@H](O)COc2cccc3ccccc23)ccc1OCCCSSCCN ... 0.066

Sample COCCc1ccc(OC[C@H](O)CNCCc2ccc(OCCSSCCN)c(OC)c2)cc1 — what was its Ratio Ki?
1.8

Sample COCCc1ccc(OC[C@@H](O)CNCCc2ccc(OCCSSCCN)c(OC)c2)cc1 — what was its Ratio Ki?
2.1

Sample COc1cc(CCNC[C@@H](O)COc2cccc3ccccc23)ccc1OCCSSCCN — what was its Ratio Ki?
0.12

Sample COc1cc(CCNC[C@H](O)COc2cccc3ccccc23)ccc1OCCSSCCN — what was its Ratio Ki?
0.33

Data provenance is ChEMBL document CHEMBL4402511.
